Kindly supply the reported IC50 values for the records listed here.
- experimental.system: human LPAR1 (Homo sapiens)
- Construct: expressed in transfected cells
- method.summary: Test Example 1: antagonism against response of LPA-induced increase in intracellular Ca2+ concentration in RH7777 cells stably expressing human LPAR1
- Format: cell-based
- condition.parameters: RH7777 cells stably expressing human LPAR1; Fluo-4 fluorescence, FDSS6000; read-out: IC50 value (concentration producing 50% antagonism against response of LPA-induced increase in intracellular Ca2+ concentration) (converted)
- Method: (1) Preparation of RH7777 cells stably expressing human LPAR1 The human LPAR1 expression vector was transfected into RH7777 cells to acquire human LPAR1 expressing cells. […] The cells were seeded onto the Poly-D-Lysine 96 well black plate and incubated overnight. […] In FDSS6000 (Hamamatsu Photonics K.K.), LPAs were added, and the change in intracellular Ca^2+ concentration was detected using the fluorescence value of a wavelength of 540 nm by an excitation wavelength of 480 nm as an indicator. […]
Express your answer in nM, writing the number without its unit.

Enquiry: Identify the measured IC50 of CCOc1cc([C@@H](C)N(CCCc2ccccc2)C(=O)NC2(C(=O)O)CC(F)(F)C2)cc(OCC)c1C for human LPAR1 (Homo sapiens).
Return: 5.7

Enquiry: Identify the measured IC50 of CCOc1cc([C@@H](C)N(CCC(F)(F)Cc2ccccc2)C(=O)NC2(C(=O)O)CC(F)(F)C2)cc(OCC)c1C1CC1 for human LPAR1 (Homo sapiens).
Return: 2.53

Enquiry: Identify the measured IC50 of CCOc1cc(OCC)cc([C@@H](C)N(CCCCc2ccccc2)C(=O)NC2(C(=O)O)Cc3ccccc3C2)c1 for human LPAR1 (Homo sapiens).
Return: 45.4

Enquiry: Identify the measured IC50 of CCOc1cc(C(C)N(CCCCc2ccccc2)C(=O)NC2CC(C(=O)O)C2)c(Cl)c(OCC)c1C(C)=O (stereo not drawn) for human LPAR1 (Homo sapiens).
Return: 32.9

Enquiry: Identify the measured IC50 of CCOc1cc(C(C)N(CCOCc2ccccc2)C(=O)NC2(c3nn[nH]n3)CC(F)(F)C2)cc(OCC)c1C1CC1 (stereo not drawn) for human LPAR1 (Homo sapiens).
Return: 3.17

Enquiry: Identify the measured IC50 of CCOc1cc([C@@H](C)N(CCCC(F)(F)c2ccccc2)C(=O)NC2(C(=O)O)CC(OC)C2)cc(OCC)c1C(C)O (single isomer, unassigned) [Example 4-61] for human LPAR1 (Homo sapiens).
Return: 3.99

* * *

Kindly supply the reported IC50 values for the records listed here.
- experimental.system: human LPAR1 (Homo sapiens, UniProt Q92633)
- Construct: expressed in transfected cells
- Sequence (Q92633 whole entry): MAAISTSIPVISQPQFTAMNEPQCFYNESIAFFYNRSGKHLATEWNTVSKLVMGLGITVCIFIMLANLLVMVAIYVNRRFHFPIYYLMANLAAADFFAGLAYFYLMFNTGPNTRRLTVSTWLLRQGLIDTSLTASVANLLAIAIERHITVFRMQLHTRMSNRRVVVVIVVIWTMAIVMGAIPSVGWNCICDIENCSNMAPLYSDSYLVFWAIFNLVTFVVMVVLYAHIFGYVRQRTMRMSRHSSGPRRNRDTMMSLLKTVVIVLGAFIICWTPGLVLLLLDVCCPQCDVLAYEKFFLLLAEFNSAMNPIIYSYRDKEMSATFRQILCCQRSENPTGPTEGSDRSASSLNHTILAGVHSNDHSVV
- method.summary: Test Example 1: antagonism against response of LPA-induced increase in intracellular Ca2+ concentration in RH7777 cells stably expressing human LPAR1
- Format: cell-based
- condition.parameters: RH7777 cells stably expressing human LPAR1; Fluo-4 fluorescence, FDSS6000; read-out: IC50 value (concentration producing 50% antagonism against response of LPA-induced increase in intracellular Ca2+ concentration) (converted)
Express your answer in nM, writing the number without its unit.

Enquiry: IC50 for CCOc1cc([C@@H](C)N(CCCCc2ccccc2)C(=O)NC2(C(=O)O)CN(C(C)=O)C2)cc(OCC)c1C [Example 1-159] ?
Return: 2.56

Enquiry: IC50 for CCOc1c(C2CC2)ccc([C@@H](C)N(CCO[C@H](C)c2cccc(Cl)c2)C(=O)NC2(C(=O)O)CCC2)c1C [Example 4-180] ?
Return: 6.22

Enquiry: IC50 for COc1cc(C(C)N(CCOC(C)c2ccccc2)C(=O)N[C@]2(C(=O)O)C[C@@H](OC)C2)c(C)c(OC)c1C (stereo partly drawn) [Example 5-160] ?
Return: 4.55

* * *

- experimental.system: human LPAR1 (Homo sapiens, UniProt Q92633)
- Construct: expressed in transfected cells
- method.summary: Test Example 1: antagonism against response of LPA-induced increase in intracellular Ca2+ concentration in RH7777 cells stably expressing human LPAR1
- Assay type: cell-based
- condition.parameters: RH7777 cells stably expressing human LPAR1; Fluo-4 fluorescence, FDSS6000; read-out: IC50 value (concentration producing 50% antagonism against response of LPA-induced increase in intracellular Ca2+ concentration) (converted)
measurement.name: IC50 (nM)
Express your answer in nM, writing the number without its unit.

Enquiry: IC50 for CCOc1cc(C(C)N(CCOCc2ccccc2)C(=O)NC2(C(=O)O)CC(OC)C2)cc(OCC)c1C1CC1 (centres unmarked) [Example 5-204] ?
Return: 0.882

Enquiry: IC50 for CCOc1cc([C@@H](C)N(CCC(F)(F)Cc2ccccc2)C(=O)NC2(C(=O)O)CC(OC)C2)cc(OCC)c1C(C)=O (some centres unmarked) ?
Return: 10.1

Enquiry: IC50 for CCOc1cc([C@@H](C)N(CCO[C@@H](C)c2ccccc2)C(=O)NC2(C(=O)O)CC(OC)C2)c(C)c(OCC)c1C(C)=O (some centres unmarked) ?
Return: 2.51

Enquiry: IC50 for CCOc1cc(C(C)N(CCCCc2ccccc2)C(=O)NC2(C(=O)O)CC(F)(F)C2)cc(OCC)c1C(=O)CC (centres unmarked) ?
Return: 4.24

Enquiry: IC50 for CCOc1cc(C(C)N(CCCCc2ccccc2)C(=O)NC2(C(=O)O)CC(F)(F)C2)cc(OCC)c1CO (centres unmarked) ?
Return: 3.68

* * *

- experimental.system: human LPAR1 (Homo sapiens)
- Construct: expressed in transfected cells
- method.summary: Test Example 1: antagonism against response of LPA-induced increase in intracellular Ca2+ concentration in RH7777 cells stably expressing human LPAR1
- Format: cell-based
- condition.parameters: RH7777 cells stably expressing human LPAR1; Fluo-4 fluorescence, FDSS6000; read-out: IC50 value (concentration producing 50% antagonism against response of LPA-induced increase in intracellular Ca2+ concentration) (converted)
Kindly supply the reported IC50 values for the records listed here.
Express your answer in µM, writing the number without its unit.

Enquiry: IC50 for CC(c1ccc(C#N)cc1)N(CCCCc1ccccc1)C(=O)NC1(C(=O)O)CC(F)(F)C1 (stereo not drawn) ?
Return: 0.0397

Enquiry: IC50 for CCOc1cc(C(C)N(CCOCc2ccccc2)C(=O)NC2(C(=O)O)CC(OCC)C2)cc(OCC)c1C1CC1 (stereo not drawn) [Example 5-219] ?
Return: 0.000813

Enquiry: IC50 for CCOc1cc([C@@H](C)N(CCC(F)(F)Cc2ccccc2)C(=O)NC2(C(=O)O)CCOCC2)c(Cl)c(OCC)c1C(C)=O ?
Return: 0.0221

Enquiry: IC50 for CCOc1cc([C@@H](C)N(CCC(F)(F)Cc2ccccc2)C(=O)NC2(C(=O)O)CCOCC2)cc(OCC)c1C1CC1 ?
Return: 0.00825

Enquiry: IC50 for CCOc1cc(C(C)N(CCCCc2ccccc2)C(=O)NC2(C(=O)O)CC(OCC)C2)cc(OCC)c1C(C)=O (stereo not drawn) ?
Return: 0.00211

Enquiry: IC50 for CCOc1cc(C(C)N(CCCCCc2ccccc2)C(=O)NC2(C(=O)O)CC(F)(F)C2)cc(OCC)c1C (stereo not drawn) ?
Return: 0.0306

* * *

- experimental.system: human LPAR1 (Homo sapiens)
- Construct: expressed in transfected cells
- method.summary: Test Example 1: antagonism against response of LPA-induced increase in intracellular Ca2+ concentration in RH7777 cells stably expressing human LPAR1
- Type: cell-based
- condition.parameters: RH7777 cells stably expressing human LPAR1; Fluo-4 fluorescence, FDSS6000; read-out: IC50 value (concentration producing 50% antagonism against response of LPA-induced increase in intracellular Ca2+ concentration) (converted)
Kindly supply the reported IC50 values for the records listed here.
Express your answer in nM, writing the number without its unit.

Enquiry: IC50 for CCOc1cc(C(C)N(CCCCc2ccccc2)C(=O)NC2(C(=O)O)CC(F)(F)C2)cc(OCC)c1C(O)C(F)(F)F (stereo not drawn) [Example 1-52] ?
Return: 7.96

Enquiry: IC50 for CCOc1c(C(C)=O)ccc([C@@H](C)N(CCCC(F)(F)c2ccccc2)C(=O)NC2(C(C)=O)CC(OCC)C2)c1C (stereo partly drawn) [Example 4-71] ?
Return: 8.06

Enquiry: IC50 for CCOc1cc([C@@H](C)N(CCO[C@@H](C)c2ccccc2)C(=O)NC2(C(=O)O)CC(OC)C2)cc(OCC)c1C(C)O (stereo partly drawn) [Example 4-123] ?
Return: 7.82
